- Target entity: Ghrelin receptor (Homo sapiens)
- Sequence (Q92847 whole entry): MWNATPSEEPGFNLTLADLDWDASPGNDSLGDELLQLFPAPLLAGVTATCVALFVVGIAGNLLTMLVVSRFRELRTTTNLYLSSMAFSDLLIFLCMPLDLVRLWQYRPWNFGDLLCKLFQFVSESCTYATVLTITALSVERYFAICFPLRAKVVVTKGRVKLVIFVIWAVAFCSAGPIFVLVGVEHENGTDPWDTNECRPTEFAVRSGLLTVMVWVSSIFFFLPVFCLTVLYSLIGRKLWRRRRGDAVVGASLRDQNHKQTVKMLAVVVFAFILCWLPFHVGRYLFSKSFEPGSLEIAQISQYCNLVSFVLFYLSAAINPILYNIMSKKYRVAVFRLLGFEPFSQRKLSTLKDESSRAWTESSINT
- Assay method text: Receptor Selection and Amplification Technology (R-SAT) assay
- Assay type: cell-based
- Parameters: expressed in transfected cells; host or cells: NIH3T3
- Test parameters: […]; '—' not defined (nd used separately); read-out: RSAT pIC50 (converted)
Each record gets a class by IC50: low class = under 20 nM, middle class = from 20 nM up to 100 nM, high class = 100 nM and over

INSERT INTO measurements (compound, assigned_label) VALUES
  ('COc1cccc2c(C(=O)NCc3cccc(Cl)c3)cn(CCCN3C4CCC3CC(CCc3ccccc3)C4)c12 (stereo not shown)', 'low class'),
  ('CCOC(=O)C1CCN(CCCn2cc(C(=O)C(F)(F)F)c3ccccc32)CC1', 'high class'),
  ('COc1cccc2c(C(=O)NCc3cccc(C)c3)cn(CCCN3CCC(Oc4ccc(Cl)cc4)CC3)c12', 'low class'),
  ('COc1cccc2c(C(=O)c3ccccc3)cn(CCCN3CCN(Oc4cccc(Cl)c4)CC3)c12', 'low class'),
  ('CC(=O)c1cn(CCCN2CCN(c3nc(-c4cccnc4)no3)CC2)c2c(C)cccc12', 'high class'),
  ('COc1ccccc1C1CCN(CCCn2cc(C(=O)C3CC3)c3cccc(OC)c32)CC1', 'low class'),
  ('COc1cccc2c(C(=O)NCC(C)C)cn(CCCN3C4CCC3CC(CCc3ccc(Cl)cc3)C4)c12 (stereo not shown)', 'middle class'),
  ('COc1ccccc1C1CCN(CCn2cc(C(C)=O)c3ccccc32)CC1', 'high class'),
  ('COc1cccc2c(C(=O)NCC(C)C)cn(CCCNCCOc3ccccc3)c12', 'high class'),
  ('COc1cccc2c(C(=O)NCc3cccc(Cl)c3)cn(CCCN3CCC(Oc4ccc(Cl)cc4)CC3)c12', 'middle class'),
  ('COc1cccc2c(C(=O)Cc3ccccc3)cn(CCCN3C4CCC3CC(CC(=O)c3ccc(Cl)cc3)C4)c12 (stereo not shown)', 'low class'),
  ('CCCCCC1CC2CCC(C1)N2CCCn1cc(C(C)=O)c2ccccc21 (stereo not shown)', 'middle class'),
  ('COc1cccc2c(C(=O)C3CC3)cn(CCCN3CCC(C(=O)c4ccccc4)CC3)c12', 'high class'),
  ('COc1cccc2c(C(=O)NCc3cccc(Cl)c3)cn(CCCN3CCC(Oc4ccccc4Cl)CC3)c12', 'high class'),
  ('COc1cccc2c(C(=O)NCc3cccc(C)c3)cn(CCCN3C4CCC3CC(CCc3ccccc3)C4)c12 (stereo not shown)', 'low class'),
  ('CC(=O)c1cn(CCCN2C3CCC2CC(Oc2ccc(Cl)cc2)C3)c2ccccc12 (stereo not shown)', 'high class'),
  ('COc1cccc2c(C(=O)NCc3cccc(C)c3)cn(CCCN3CCCN(Cc4ccccc4Cl)CC3)c12', 'low class'),
  ('CC(=O)c1cn(CCCN2C3CCC2CC(CC(=O)c2ccccc2)C3)c2c(Br)cccc12 (stereo not shown)', 'low class'),
  ('COc1cccc2c(C(=O)NCc3cccc(C)c3)cn(CCCN3CCCN(CCc4ccccc4)CC3)c12', 'low class'),
  ('CCCCC1CCN(CCCn2cc(C(=O)NCC(C)C)c3cccc(OC)c32)CC1', 'low class'),
  ('COc1cccc2c(C(=O)NCc3cccc(C)c3)cn(CCCN3CCN(CCOc4ccc(Cl)cc4)CC3)c12', 'high class'),
  ('COc1cccc2c(C(C)=O)cn(CCCN3CCN(CC(=O)N4CCOCC4)CC3)c12', 'high class'),
  ('COc1cccc2c(C(=O)C3CC3)cn(CCCN3C4CCC3CC(CC(=O)c3ccccc3)C4)c12 (stereo not shown)', 'high class'),
  ('COc1cccc2c(C(=O)C3CC3)cn(CCCNCCOc3ccccc3)c12', 'low class'),
  ('CC(=O)c1cn(CCCN2CCC(c3nc(-c4cccnc4)no3)CC2)c2c(C#N)cccc12', 'middle class'),
  ('CCOC(=O)C1CCN(CCn2cc(C(C)=O)c3ccccc32)CC1', 'high class'),
  ('COc1cccc2c(C(=O)C3CC3)cn(CCCN3CCCN(Cc4ccc(F)cc4)CC3)c12', 'low class'),
  ('COc1cccc2c(C(=O)C3CC3)cn(CCCN3C4CCC3CC(Oc3ccc(F)cc3)C4)c12 (stereo not shown)', 'middle class'),
  ('COc1cccc2c(C(=O)NCc3cccc(C)c3)cn(CCCN3CCC(c4nc(-c5cccnc5)no4)CC3)c12', 'middle class'),
  ('COc1cccc2c(C(=O)Cc3ccccc3)cn(CCCN3CCC(CCOc4ccc(Cl)cc4)CC3)c12', 'middle class'),
  ('CCCCC1CCN(CCCn2cc(C(=O)NCc3cccc(C)c3)c3cccc(OC)c32)CC1', 'low class'),
  ('COc1cccc2c(C(=O)Cc3ccccc3)cn(CCCN3CCN(Oc4cccc(Cl)c4)CC3)c12', 'low class'),
  ('COc1cccc2c(C(=O)c3ccccc3)cn(CCCN3C4CCC3CC(CCc3ccc(Cl)cc3)C4)c12 (stereo not shown)', 'low class'),
  ('COc1cccc2c(C(=O)C3CC3)cn(CCCN3C4CCC3CC(CCc3ccc(Cl)cc3)C4)c12 (stereo not shown)', 'low class');

---

- Target entity: Ghrelin receptor (Homo sapiens)
- Assay method text: Receptor Selection and Amplification Technology (R-SAT) assay
- Assay type: cell-based
- Design: expressed in transfected cells; host or cells: NIH3T3
- Test parameters: […]; '—' not defined (nd used separately); read-out: RSAT pIC50 (converted)
Property label: IC50 (nM)

INSERT INTO measurements (compound, target_entity, unit_tag, observed) VALUES
  ('COc1cccc2c(C(=O)NCc3cccc(C)c3)cn(CCCN3C4CCC3CC(CC(=O)c3ccc(Cl)cc3)C4)c12 (stereo not shown)', 'Ghrelin receptor (Homo sapiens)', 'nM', 10),
  ('COc1cccc2c(C(=O)NCc3cccc(Cl)c3)cn(CCCN3CCC(c4nc(-c5ccncc5)no4)CC3)c12', 'Ghrelin receptor (Homo sapiens)', 'nM', 31.6),
  ('CCCCC[C@H]1C[C@H]2CC[C@@H](C1)N2CCCn1cc(C(=O)c2ccccc2)c2cccc(OC)c21', 'Ghrelin receptor (Homo sapiens)', 'nM', 200),
  ('CC(=O)c1cn(CCCN2CCC(c3nc4ccccc4s3)CC2)c2c(Cl)cccc12', 'Ghrelin receptor (Homo sapiens)', 'nM', 5.01);

---

// values below are reported Emax
- Target entity: UniProt:Q92847
- Assay method text: Receptor Selection and Amplification Technology (R-SAT) assay
- Assay type: cell-based
- Set-up: expressed in transfected cells; host or cells: NIH3T3
- Test parameters: read-out: RSAT Eff(%)
Property label: Emax (%)

INSERT INTO assay_data (compound, unit_tag, observed) VALUES
  ('CC(=O)c1cn(CCCN2CCN(CCOc3ccc(Cl)cc3)CC2)c2c(Cl)cccc12', '%', 32),
  ('CC(=O)c1cn(CCCCN2CCC(O)(Cc3ccccc3)CC2)c2ccccc12', '%', 24),
  ('CC(=O)c1cn(CCCN2CCC(c3nc(-c4cccnc4)no3)CC2)c2c(C#N)cccc12', '%', 77),
  ('CC(=O)c1cn(CCCN2CCC(CCOc3ccc(Cl)cc3)CC2)c2c(C#N)cccc12', '%', 27),
  ('CC(=O)c1cn(CCCNC2Cc3ccccc3C2)c2c(C#N)cccc12', '%', 6),
  ('COc1cccc2c(C(=O)C3CC3)cn(CCCN3CCC(Oc4ccc(F)cc4)CC3)c12', '%', 101),
  ('COc1cccc2c(C(=O)NCc3cccc(Cl)c3)cn(CCCN3CCC(c4nc(-c5cccnc5)no4)CC3)c12', '%', 103),
  ('COc1cccc2c(C(=O)NCc3cccc(C)c3)cn(CCCN3C4CCC3CC(CC(=O)c3ccccc3)C4)c12 (stereo not shown)', '%', 106),
  ('COc1cccc2c(C(=O)NCc3cccc(Cl)c3)cn(CCCN3CCN(CCOc4ccccc4)CC3)c12', '%', 101),
  ('COc1cccc2c(C(=O)NCc3cccc(C)c3)cn(CCCN3C4CCC3CC(CCc3ccccc3)C4)c12 (stereo not shown)', '%', 89),
  ('COc1cccc2c(C(C)=O)cn(CC(C)CN3CCCC(Oc4ccc(Cl)cc4)C3)c12 (stereo not shown)', '%', -1),
  ('COc1cccc2c(C(=O)NCc3cccc(C)c3)cn(CCCN3CCC(c4nc5ccccc5s4)CC3)c12', '%', 94),
  ('CC(=O)c1cn(CCCN2CCCN(CCc3ccccc3)CC2)c2c(C)cccc12', '%', 102),
  ('CCCCC(=O)c1cn(CCCN2CCC(Oc3ccc(Cl)cc3)CC2)c2ccc(OC)cc12', '%', 111),
  ('CCCCC[C@H]1C[C@H]2CC[C@@H](C1)N2CCCn1cc(C(C)=O)c2ccccc21', '%', 118),
  ('COc1cccc2c(C(C)=O)cn(CC(C)CN3CCN(CCOc4ccccc4)CC3)c12 (stereo not shown)', '%', -7),
  ('CCc1cccc2c(C(C)=O)cn(CCCN3C4CCC3CC(CCc3ccc(Cl)cc3)C4)c12 (stereo not shown)', '%', 95),
  ('COc1cccc2c(C(=O)NCc3cccc(C)c3)cn(CCCN3CCN(CCOc4ccc(Cl)c5ccccc45)CC3)c12', '%', 2),
  ('COc1cccc2c(C(=O)NCc3cccc(Cl)c3)cn(CCCN3CCCC(Oc4ccc(Cl)cc4)C3)c12 (stereo not shown)', '%', 31);
